- assay text: total clearance after intravenous administration to rats
- Assay type: in vivo, Sprague–Dawley rats
- details: intravenous cassette dose 0.1 mg/kg, N = 3
Quick list: CLt, Rats per entry.
readout kind: CLt, Rats (mL/min/kg)

>  <compound>
CN[C@@H]1C[C@H]2O[C@@](C)([C@@H]1OC)n1c3ccccc3c3c4c(c5c6ccccc6n2c5c31)C(=O)N[C@H]4O [UCN−01, 7‐hydroxystaurosporine]

>  <readout kind>
CLt, Rats

>  <endpoint result>
77.37

$$$$
>  <compound>
CN1C(C(=O)Nc2ccccn2)=C(O)c2sccc2S1(=O)=O

>  <readout kind>
CLt, Rats

>  <endpoint result>
0.49

$$$$
>  <compound>
Cn1c(=O)c2[nH]cnc2n(C)c1=O

>  <readout kind>
CLt, Rats

>  <endpoint result>
1.91

$$$$
>  <compound>
CNC(=C[N+](=O)[O-])NCCSCc1ccc(CN(C)C)o1

>  <readout kind>
CLt, Rats

>  <endpoint result>
99.88

$$$$
>  <compound>
CC(C)N(CCC(C(N)=O)(c1ccccc1)c1ccccn1)C(C)C (stereo not drawn) [Disopyramide]

>  <readout kind>
CLt, Rats

>  <endpoint result>
179.46

$$$$
>  <compound>
CC(=O)C[C@@H](c1ccccc1)c1c(O)c2ccccc2oc1=O [(S)‐Warfarin]

>  <readout kind>
CLt, Rats

>  <endpoint result>
0.21

$$$$
>  <compound>
COc1ccc2cc([C@H](C)C(=O)O)ccc2c1 [(S)‐Naproxen]

>  <readout kind>
CLt, Rats

>  <endpoint result>
0.41

$$$$
>  <compound>
CCNC(=O)OC1CCN(c2nncc3cc(OC)c(OC)cc23)CC1

>  <readout kind>
CLt, Rats

>  <endpoint result>
42.22

$$$$
>  <compound>
CC(C)(C)NC[C@H](O)COc1nsnc1N1CCOCC1

>  <readout kind>
CLt, Rats

>  <endpoint result>
137.02

$$$$

* * *

- details: from CLt in rats, monkeys and dogs and fu,p ratio rat/human
API: label(entry) gives true (1) if the entry's Predicted CLt,human, FCIM is strictly smaller than 0.2 L/h/kg; on equality or larger values it gives false (0).

>  <compound>
CC(=O)C[C@@H](c1ccccc1)c1c(O)c2ccccc2oc1=O [(S)‐Warfarin]

>  <class>
true (1)

$$$$
>  <compound>
Nc1ccc(S(=O)(=O)c2ccc(N)cc2)cc1

>  <class>
true (1)

$$$$
>  <compound>
COc1cc2nc(N3CCN(C(=O)C4COc5ccccc5O4)CC3)nc(N)c2cc1OC (centres unmarked)

>  <class>
false (0)

$$$$
>  <compound>
CN1C(C(=O)Nc2ccccn2)=C(O)c2sccc2S1(=O)=O

>  <class>
true (1)

$$$$
>  <compound>
CN[C@@H]1C[C@H]2O[C@@](C)([C@@H]1OC)n1c3ccccc3c3c4c(c5c6ccccc6n2c5c31)C(=O)N[C@H]4O [UCN−01, 7‐hydroxystaurosporine]

>  <class>
true (1)

$$$$
>  <compound>
CNC(=C[N+](=O)[O-])NCCSCc1ccc(CN(C)C)o1

>  <class>
false (0)

$$$$
>  <compound>
CN1C(=O)CN=C(c2ccccc2)c2cc(Cl)ccc21

>  <class>
true (1)

$$$$
>  <compound>
COc1ccccc1Oc1c(NS(=O)(=O)c2ccc(C(C)(C)C)cc2)nc(-c2ncccn2)nc1OCCO

>  <class>
false (0)

$$$$
>  <compound>
CCNC(=O)OC1CCN(c2nncc3cc(OC)c(OC)cc23)CC1

>  <class>
false (0)

$$$$
>  <compound>
CCOc1ccccc1OC(c1ccccc1)C1CNCCO1 (centres unmarked)

>  <class>
true (1)

$$$$

Taken from paper PMC8742647.
